// reported protein stability index for each item listed
B1: INTS4 (parent)
chain: AKQIMEETYKMEFMYSGVENKQVV

# Variants of: B1
# assayDetails: protein stability index of a GFP-peptide fusion (GPS, HEK-293T) (PSI 1-6); higher = more stable;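 also: lentivirally expressed fusions sorted by FACS into six bins by GFP to DsRed ratio, PSI derived from sequencing read proportions per bin multiplied by bin number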
# conditionSummary: c terminus: a fixed tail appended
Please respond with just the number, no unit label.

Examples from the recorded data:
> print(dat)
   variantid              readoutkind  readoutvalue
1       M11W  protein stability index          2.22
2        A1C  protein stability index          1.86
3       N20K  protein stability index          1.46
4       Q22C  protein stability index          2.97
5       M14T  protein stability index          1.63
6       E19T  protein stability index          1.85
7       K21N  protein stability index          2.25
8       S16M  protein stability index          2.24

**Q:** Answer with the recorded protein stability index of `N20L` only.
**A:** 1.29

**Q:** Tell me protein stability index reported for `M5F`
**A:** 1.79

**Q:** Give me measured protein stability index, please, for this variant: `V18E`
**A:** 2.78

**Q:** Identify measured protein stability index corresponding to `V24L`
**A:** 1.73

**Q:** Note protein stability index for the variant shown: `K10D`
**A:** 3.55

**Q:** Specify protein stability index for `M5T` and stop.
**A:** 2.98

**Q:** Item `I4H` : provide protein stability index
**A:** 2.04

**Q:** Provide protein stability index value for the following variant: `A1W`
**A:** 2.44

**Q:** Please give measured protein stability index of the following entry: `M14H`
**A:** 1.87

**Q:** Supply reported protein stability index belonging to this variant: `Y9F`
**A:** 2.26

**Q:** Indicate the recorded protein stability index value for this variant: `Y9T`
**A:** 3.87

**Q:** State, in one line, measured protein stability index of `Y15D`
**A:** 2.37

**Q:** Report protein stability index, nothing else, for this variant: `I4E`
**A:** 3.46

**Q:** Fill in protein stability index for record `I4R`
**A:** 2.07
